Tested on: K4 kissing-loop RNA reporter;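 further: bound reporter read as fluorescence of individual clusters on recovered sequencing chips by microscopy, with normalized cluster intensities fitted with a binding model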
Test Protocol: apparent KD of K4 kissing-loop reporter; higher = weaker reporter binding
Measurement Conditions: Eterna round: R107; input ligand: theophylline 20 uM
// map apparent KD of K4 kissing-loop reporter onto a label; ranges one (below 0.2 µM), two (0.2 µM to below 0.4 µM), three (0.4 µM or more)

{"Residue String": "UGAUAGGACAGAAGGAGCGGUAGUGAUGUUGCCAAAAGGGUAAGGUGUCAAAAGACACCCUGCCAGGUAGGUCGCUGUCCUAUCU", "Label Value": "one"}
{"Residue String": "AACUGCCAAGGAACAUUGUAAGAAGGUGAUACCAGCAUCGAAAGAUGCCCUUGGCAGCACCAACUUGCAGUGAUGUUGCAAGUAA [Design5]", "Label Value": "one"}
{"Residue String": "AAUAAGGUCGCCGAUACCAGCGCAGGCAGAGCAAAGCUCUGCCAGGUAGUGAUGUUACCGCGCCCUUGGCAGCGGUGGCACGACC [Omei KL Theo B SS C v2]", "Label Value": "three"}
{"Residue String": "GUAUCGCUAGGAGGAUAUUUCAAAUAAUAAAUAAAUGGUUAUACGGAGUGAUGUUCCGAUUUACGGAAAGAAGGCCUAGUGAUAC [FMN B 3]", "Label Value": "one"}
{"Residue String": "GUGCGGCUAGUGAUGUUGGUUGCGUGGGAAGGAGCGCAGUAAAAUGCAGGUAGGUCGCCCGCAUCUCUGAUAAAAGAUUAAUUCA [KL-SSArg-A9]", "Label Value": "two"}
{"Residue String": "GGGAGGAACUGAGGAUAUUCGAAGAAAUAUAGUGAUGUUAUGUAAGGAGGAGGAGGGAGGGAGGAAGGAGAAGGCAGAAGAGGAG [ExFMNB.A]", "Label Value": "two"}
{"Residue String": "GCGUCUUGGUCGGCCGCCACUGAGCCUAGUCACACUCUUGAGUGAUGUUGAAGAUGGUGGACUUGCAGGACCGGGACCACGGACG [theeternabot_sameState_KL_Trp_B_41]", "Label Value": "three"}
{"Residue String": "GGAGCUACCUGGGAUACCAGUCGGAGUCUCAGAGCUCGGAGUGAUGUUCUGGGAUGUUUCGGCCCUUGGCAGCUCUGGGACUCCU [#2 Exclusion - Theophylline B Attempt #18 (HarryS)]", "Label Value": "three"}
{"Residue String": "UAGCAUUUGCUCGAGUGAUGUUCGAGCGAAGGAGCGCGAGAAAUCGCAGGUAGGUCGCGCUCGAACUAUGAGCGAUCAUUUAUUA [Arg A Ex t2c]", "Label Value": "three"}
{"Residue String": "GUGGUACAGGCGGCCGCCACUAGUGAUGUUAGUGAUAGAAGAUAUAGUAUAUAUCGGCAUUUAGUUAGGACCGGGCCUGGUGGUG [wwwrcmullin]", "Label Value": "two"}
{"Residue String": "AGAUUCGACACGGCCGCCACUUGUGGUGGAUUAUCCUAUGUCGAACAUGAGUGAUGUUCAUGUACAAGGACCGGGUGUUGAGUCU [KL-XTryp-B6 #analogue]", "Label Value": "three"}
{"Residue String": "AGGGACUCUUCGGAGUCCCGGUUAAGGGAUACCAGUGAUGUUGGUCACCCUUGGCAGCCCAGAAACCAAGCCACCAAAGGUGGCA [Omei KL Theo A Exc A v2]", "Label Value": "two"}
{"Residue String": "GUACCUUGGAAACAAGGACAGCUCACCGAAGGAGCGCGUGAAAACGCAGGUAGGUCGCGGUAGCGGAGUGAUGUUCCGCGAGGGC [Same State Arginine A GF 20]", "Label Value": "one"}
{"Residue String": "GUUACGCAUGGAAGGAGCGCACUCCGGUUGAUCAACACAGUGAUGUUGUGGUUCAUUCGAAUGCAGGUAGGUCGCCAUGUGUAAC [Ex Arginine B K4 16]", "Label Value": "three"}
{"Residue String": "UUGUUUCCGACGGCCGCCACUGGUUUCUUUGUUGUAGUGAUGUUGCGGUGGAAUGAUAGCGUUAACAGGACCGGGUCGGUGAGAC [theeternabot_sameState_KL_Trp_B_42]", "Label Value": "three"}
{"Residue String": "GGUAGCAUGGCGGCCGCCACUUACUUCAAUAGGAGUGAUGUUCCUAUUACUAGUAGUGAAAUAAUAAGGACCGGGCCAUGCUACC", "Label Value": "one"}
{"Residue String": "AAGUGUGUGGCGGCCGCCACUAGAAUCCAGUGAUGUUGGAGUUAUCAAAUAAAUGAUAAUCAACAUAGGACCGGGCCAUAUAGAA [Same State - Tryptophan B (Freestyle 4)]", "Label Value": "three"}
{"Residue String": "UCGGGAGGCCGAAGGAGCGCCGCCAGUGAUGUUGGGAGUUAGAUACCAGUGAUGUUGGGCCGGCAGGUAGGUCGCGGCCGCGGAU [Exclusion Arginine B Gf 18]", "Label Value": "one"}
{"Residue String": "GCCGUACGCAUGGAUACCAGUCUUUCACGACUGGGCAUGGAGUGAUGUUUCGUGAUGCUAGACCCUUGGCAGCCAUGCGUACGGC", "Label Value": "one"}
{"Residue String": "GCCAGAGCGCGAAGGAGCGCCGUGACAGGUUGCUGCCGUGGGCAGUGAUGUUGCUCAGUCCGGCAGGUAGGUCGCGUGCUCUGGC", "Label Value": "three"}
{"Residue String": "GCGCGUCAUGUUGGCGGGAACUAAGCCGAUACCAGCCGGGAAACCGGCCCUUGGCAGCGGCGCGCCGGAGUGAUGUUCCGACAGA [#2 Exclusion - Theophylline A Attempt #1 (HarryS)]", "Label Value": "two"}
{"Residue String": "UGAGGAGAAUAUGAUACCAGCAGAGAGAGAGAGGAAGUAUAGUGAUGUUAUAUGAGAGAAUGCCCUUGGCAGCAUAAGAAGAAGG [SSTheophylB.B]", "Label Value": "one"}
{"Residue String": "CAUAGGAAACUAUGUAUCUCUCCGACUGAAGGAGCGCGUGAAAACGCAGGUAGGUCGCAGAAUUUAACGGAGAGUGAUGUUCUCU [Ex Arginine A K4 10]", "Label Value": "two"}

Where these numbers come from: the supplement of paper PMC9170038
